- TGT: MMP-2 (Homo sapiens)
- Construct: purchased SIGMA PF023
- Sequence (P08253 110-660): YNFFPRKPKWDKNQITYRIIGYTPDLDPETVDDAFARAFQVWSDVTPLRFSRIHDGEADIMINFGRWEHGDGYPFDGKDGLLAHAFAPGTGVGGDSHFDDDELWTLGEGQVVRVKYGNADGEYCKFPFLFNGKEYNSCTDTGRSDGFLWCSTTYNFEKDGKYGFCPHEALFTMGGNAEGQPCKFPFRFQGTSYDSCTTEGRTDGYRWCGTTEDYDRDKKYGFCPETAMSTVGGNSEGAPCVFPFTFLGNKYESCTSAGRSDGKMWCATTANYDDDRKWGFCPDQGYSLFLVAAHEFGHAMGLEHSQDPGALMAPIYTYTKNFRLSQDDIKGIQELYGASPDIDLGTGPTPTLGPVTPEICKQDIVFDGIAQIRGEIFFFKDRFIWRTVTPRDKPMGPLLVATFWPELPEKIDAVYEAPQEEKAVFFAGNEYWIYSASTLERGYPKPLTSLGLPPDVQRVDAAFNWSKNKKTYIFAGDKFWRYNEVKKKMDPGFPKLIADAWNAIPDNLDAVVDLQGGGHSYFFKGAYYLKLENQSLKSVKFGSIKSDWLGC
- ASSAY PROCEDURE: FRET peptide cleavage efficiency with MMP-2
- Type: biochemical
- TEST CONTEXT: pH 6.5; t = 15 min (Table 7)
Square brackets hold non-standard residues; d marks the D form. Ends that are not written are not given here. Tyr(3-NO2) = N[C@@H](Cc1ccc(O)c([N+](=O)[O-])c1)C(=O)O; 2Abz = Nc1ccccc1C(=O)O
VALUE KIND: % cleavage MMP-2 t = 15 min (%)
Write the answer as a number in %, unit excluded.

Some sequences with recorded % cleavage MMP-2 t = 15 min:
Task: So what % cleavage MMP-2 t = 15 min did SGRVANLVG (not fully specified (N-terminus, C-terminus)) [LNK017] get with MMP-2 (Homo sapiens)?
Output: 93

Task: Could you do the same for SGRVAGLVG ([2Abz]SGRVAGLVG[Tyr(3-NO2)]-NH2) [LNK016] , please?
Output: 84

Task: Could you do the same for SGRVLRKAGPQPLVD ([2Abz]SGRVLRKAGPQPLVD[Tyr(3-NO2)]-NH2) [LNK003] , please?
Output: 5

Task: Could you do the same for RQRRSPLGLAG ([2Abz]RQRRSPLGLAG[Tyr(3-NO2)]-NH2) [LNK010] , please?
Output: 63

Task: Could you do the same for SSRGRRGPYMLQG ([2Abz]SSRGRRGPYMLQG[Tyr(3-NO2)]-NH2) [LNK021] , please?
Output: 26

Task: Could you do the same for SGRVLRKAGPANLVG ([2Abz]SGRVLRKAGPANLVG[Tyr(3-NO2)]-NH2) [LNK014] , please?
Output: 100

Others:
Task: So what % cleavage MMP-2 t = 15 min did SSRGPYMLQG ([2Abz]SSRGPYMLQG[Tyr(3-NO2)]-NH2) [LNK022] get with MMP-2 (Homo sapiens)?
Output: 32
